# Target or system: T1, RXFP1 receptor (UniProt Q9HBX9 1-757, limits assumed)
# T1 sequence (looked up): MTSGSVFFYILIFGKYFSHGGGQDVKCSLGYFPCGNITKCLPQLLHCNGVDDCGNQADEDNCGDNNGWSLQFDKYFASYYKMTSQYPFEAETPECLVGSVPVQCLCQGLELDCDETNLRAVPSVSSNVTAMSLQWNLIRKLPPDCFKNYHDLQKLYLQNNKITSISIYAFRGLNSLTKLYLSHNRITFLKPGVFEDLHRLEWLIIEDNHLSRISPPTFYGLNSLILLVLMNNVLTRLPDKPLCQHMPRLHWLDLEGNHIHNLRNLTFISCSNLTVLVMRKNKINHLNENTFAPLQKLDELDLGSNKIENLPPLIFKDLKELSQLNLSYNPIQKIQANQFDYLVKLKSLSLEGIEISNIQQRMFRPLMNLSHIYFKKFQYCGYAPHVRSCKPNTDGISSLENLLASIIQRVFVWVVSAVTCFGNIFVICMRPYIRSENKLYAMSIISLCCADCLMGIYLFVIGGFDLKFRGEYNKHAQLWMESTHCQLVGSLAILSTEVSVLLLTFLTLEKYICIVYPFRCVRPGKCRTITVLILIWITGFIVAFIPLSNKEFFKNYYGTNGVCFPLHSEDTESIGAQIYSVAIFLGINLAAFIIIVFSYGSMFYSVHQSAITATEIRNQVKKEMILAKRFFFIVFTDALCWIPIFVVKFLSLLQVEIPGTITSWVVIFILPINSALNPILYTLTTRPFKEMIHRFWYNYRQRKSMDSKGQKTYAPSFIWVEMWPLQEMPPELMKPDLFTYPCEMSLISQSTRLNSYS
# Measurement protocol: cell-based or functional assay
*1 amine or outer side, *2 acyl side, *3 side chain or, on linkers, in order; H or OH if unused. Primed or numbered codes have the meaning given here. Side-chain parts run from the residue outwards. [ ]: non-standard residue; d: D form. The star is where a group is joined. γGlu = O=C(O)[C@H](CCC(=O)[*:2])N[*:1]; Stearoyl = CCCCCCCCCCCCCCCCCC(=O)*; Palmitoyl = CCCCCCCCCCCCCCCC(=O)*; Myristoyl = CCCCCCCCCCCCCC(=O)*; αMeK = C[C@](N)(CCCCN)C(=O)O; Lauroyl = CCCCCCCCCCCC(=O)*; Nle = CCCC[C@H](N)C(=O)O; PEG2′ = PEG2 spacer unit; PEG2″ = not defined here; Aib = CC(C)(N)C(=O)O
Test readout: EC50 (nM), OVCAR 5 cells (cAMP)

| Binder | EC50 (nM), OVCAR 5 cells (cAMP) |
| --- | --- |
| Ac-LEGREKVRAK(Ac)I[Aib][Aib]EGQSTFS[αMeK]RAK(Ac)[PEG2′][PEG2′][PEG2′][PEG2′]K([γGlu-γGlu-γGlu-γGlu-Lauroyl])-NH2 [peptide of SEQ ID NO: 161] | 12.1 |
| Ac-LEGREKVRAQI[Aib][Aib]EG[Nle]STWS[Aib]RKK[PEG2″][PEG2″][PEG2″][γGlu][γGlu][γGlu]K([γGlu-Palmitoyl])-NH2 [peptide of SEQ ID NO: 110] | 0.17 |
| Ac-LEGREKVRAQI[Aib][Aib]EGQSTWS[Aib]RKKK([PEG2″-PEG2″-γGlu-γGlu-γGlu-Stearoyl])-NH2 [peptide of SEQ ID NO: 70] | 0.28 |
| Ac-LEGREKVRAK(Ac)I[Aib][Aib]EG[Nle]STFS[Aib]RKK(Ac)[PEG2′][PEG2′][PEG2′][PEG2′]K([γGlu-γGlu-γGlu-Palmitoyl])-NH2 [peptide of SEQ ID NO: 144] | 4.1 |

1: Ac-LEGREKVRAK(Ac)I[Aib][Aib]EG[Nle]STWS[Aib]RKK(Ac)K([PEG2′-PEG2′-PEG2′-γGlu-γGlu-γGlu-Stearoyl])-NH2 [peptide of SEQ ID NO: 81]
2: Ac-LEGREKVRAQI[Aib][Aib]EG[Nle]STWS[Aib]RKKK([PEG2′-PEG2′-PEG2′-γGlu-γGlu-γGlu-γGlu-Stearoyl])-NH2 [peptide of SEQ ID NO: 88]
3: Ac-LEGREKVRAK(Ac)I[Aib][Aib]EG[Nle]STFS[αMeK]RAK(Ac)[PEG2″][PEG2″][PEG2″][PEG2″]K([γGlu-γGlu-γGlu-γGlu-Palmitoyl])-NH2 [peptide of SEQ ID NO: 150]
4: Ac-LEGREKVRAK(Ac)I[Aib][Aib]EG[Nle]STFS[αMeK]RAK(Ac)[PEG2′][PEG2′][PEG2′][PEG2′]K([γGlu-γGlu-γGlu-γGlu-Myristoyl])-NH2 [peptide of SEQ ID NO: 172]
Parameters: sort_field (EC50 (nM), OVCAR 5 cells (cAMP)), sort_dir (desc). State the ranking by listing the labels in the requested order.
4, 1, 2, 3
(4: 0.56 nM, 1: 0.22 nM, 2: 0.11 nM, 3: 0.07 nM)
